# assay.system: human glucagon-like peptide-1 (GLP-1) receptor (human) (UniProt P43220)
# measurement.protocol: cell-based or functional assay
Cut-off 600 pM on cAMP EC50, inclusive. At or above means true; below means false.

binder: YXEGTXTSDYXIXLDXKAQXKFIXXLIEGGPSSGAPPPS (Y-Aib-EGT-αMeF(2F)-TSDY-Aib-I-αMeL-LD-Orn-K((2-[2-(2-Amino-ethoxy)-ethoxy]-acetyl)2-(γ-Glu)-CO-(CH2)12-CO2H)AQ-Aib-K((2-[2-(2-Amino-ethoxy)-ethoxy]-acetyl)2-(γ-Glu)-CO-(CH2)12-CO2H)FI-(D-Glu)-αMeY-LIEGGPSSGAPPPS-NH2) [Example 230]
classification: true

binder: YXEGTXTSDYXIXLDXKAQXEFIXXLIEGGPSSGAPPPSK (Y-Aib-EGT-αMeF(2F)-TSDY-Aib-I-αMeL-LD-Orn-K((2-[2-(2-Amino-ethoxy)-ethoxy]-acetyl)2-(γ-Glu)-CO-(CH2)12-CO2H)AQ-Aib-EFI-(D-Glu)-αMeY-LIEGGPSSGAPPPSK((2-[2-(2-Amino-ethoxy)-ethoxyl-acetyl)2-(γ-Glu)-CO-(CH2)12-CO2H)-NH2) [Example 232]
classification: false

binder: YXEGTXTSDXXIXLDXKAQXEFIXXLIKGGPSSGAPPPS (Y-Aib-EGT-αMeF(2F)-TSD-4Pal-Aib-I-αMeL-LD-Orn-K((2-[2-(2-Amino-ethoxy)-ethoxy]-acetyl)2-(γ-Glu)-(10-(4-carboxyphenoxy)decanoyl))AQ-Aib-EFI-(D-Glu)-αMeY-LIK((2-[2-(2-Amino-ethoxy)-ethoxy]-acetyl)2-(γ-Glu)-(10-(4-carboxyphenoxy)decanoyl))GGPSSGAPPPS-NH2) [Example 244]
classification: true

binder: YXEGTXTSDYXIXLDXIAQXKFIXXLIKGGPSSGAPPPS (Y-Aib-EGT-αMeF(2F)-TSDY-Aib-I-αMeL-LD-Orn-IAQ-Aib-K((2-[2-(2-Amino-ethoxy)-ethoxy]-acetyl)2-(γ-Glu)-(10-(4-carboxyphenoxy)decanoyl))FI-(D-Glu)-αMeY-LIK((2-[2-(2-Amino-ethoxy)-ethoxy]-acetyl)2-(γ-Glu)-(10-(4-carboxyphenoxy)decanoyl))GGPSSGAPPPS-NH2) [Example 240]
classification: false

binder: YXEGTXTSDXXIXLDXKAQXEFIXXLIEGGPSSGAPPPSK (Y-Aib-EGT-αMeF(2F)-TSD-4Pal-Aib-I-αMeL-LD-Orn-K((2-[2-(2-Amino-ethoxy)-ethoxy]-acetyl)2-(γ-Glu)-(10-(4-carboxyphenoxy)decanoyl))AQ-Aib-EFI-(D-Glu)-αMeY-LIEGGPSSGAPPPSK((2-[2-(2-Amino-ethoxy)-ethoxy]-acetyl)2-(γ-Glu)-(10-(4-carboxyphenoxy)decanoyl))-NH2) [Example 245]
classification: true

binder: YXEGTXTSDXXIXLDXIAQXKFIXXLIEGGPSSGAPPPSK (Y-Aib-EGT-αMeF(2F)-TSD-4Pal-Aib-I-αMeL-LD-Orn-IAQ-Aib-K((2-[2-(2-Amino-ethoxy)-ethoxy]-acetyl)2-(γ-Glu)-(10-(4-carboxyphenoxy)decanoyl))FI-(D-Glu)-αMeY-LIEGGPSSGAPPPSK((2-[2-(2-Amino-ethoxy)-ethoxy]-acetyl)2-(γ-Glu)-(10-(4-carboxyphenoxy)decanoyl))-NH2) [Example 248]
classification: false
